experimental system: T1, EGFRvIII expressed on cells (CHO^EGFRvIII, F98^EGFRvIII) (UniProt P00533 25-1210)
T1 construct: whole, on cells; the vIII deletion must be applied; also called deletion mutant EGFRvIII
assay notes: cell-based or functional assay
measure: Cytotoxic potency EC50 (nM)

EGFRvIII/CD3 TandAb with EGFRvIII binding domain ABC471, domain order (i) VL^CD3(v64)-VH^EGFRvIII-VL^EGFRvIII-VH^CD3(v64) (bispecific antibody, part only; not given: CD3 v64 domain and linkers, not shown: small tags and cut ends) chain, part: EVQLVQSGAEVKKPGESLKISCKGSGYSFNSYWIGWVRQMPGKGLEWMGIIYPGDSANRYSPSFQGQVTISADKSISTAYLQWSSLKASDTAMYYCARLGSSWTNDAFDIWGQGTLVTVSSSYELTQPPSVSVSPGQTARITCSGDYLPKQYAYWYQQKPGQAPVLVIYKDTERPSGIPERFSGSSSGTTVTLTISGVQAEDEADYYCQSVDSSHPSVVFGGGTKLTVL
1.5
EGFRvIII/CD3 TandAb with EGFRvIII binding domain ABC472, domain order (i) VL^CD3(v64)-VH^EGFRvIII-VL^EGFRvIII-VH^CD3(v64) (bispecific antibody, part only; not given: CD3 v64 domain and linkers, not shown: small tags and cut ends) chain, part: EVQLVQSGAEVKKPGESLKISCKGSGYSFGYYWIGWVRQMPGKGLEWMGIIYPGDSHTRYSPSFQGQVTISADKSISTAYLQWSSLKASDTAMYYCARLGSSWTNDAFDIWGQGTLVTVSSSYELTQPPSVSVSPGQTARITCSGDALPKQYAYWYQQKPGQAPVLVIYKDTERPSGIPERFSGSSSGTTVTLTISGVQAEDEADYYCQSVDSSGTQVVFGGGTKLTVL
4.2
EGFRvIII/CD3 TandAb with EGFRvIII binding domain ABC469, domain order (i) VL^CD3(v64)-VH^EGFRvIII-VL^EGFRvIII-VH^CD3(v64) (bispecific antibody, part only; not given: CD3 v64 domain and linkers, not shown: small tags and cut ends) chain, part: EVQLVQSGAEVKKPGESLKISCKGSGYSFNSYWIGWVRQMPGKGLEWMGIIYPGDSDTRYSPSFQGQVTISADKSISTAYLQWSSLKASDTAMYYCARLGSSWTNDAFDIWGQGTLVTVSSLTQPPSYESVSVSPGQTARITCSGDTLPKQYAYWYQQKPGQAPVLVIYKDSERPSGIPERFSGSSSGTTVTLTISGVQAEDEADYYCQSVDVSGTYVVFGGGTKLTVL
11
EGFRvIII/CD3 TandAb with EGFRvIII binding domain ABC469, domain order (iv) VH^EGFRvIII-VL^CD3-VH^CD3-VL^EGFRvIII (bispecific antibody, part only; not given: CD3 domain and linkers, not shown: small tags and cut ends) chain, part: EVQLVQSGAEVKKPGESLKISCKGSGYSFNSYWIGWVRQMPGKGLEWMGIIYPGDSDTRYSPSFQGQVTISADKSISTAYLQWSSLKASDTAMYYCARLGSSWTNDAFDIWGQGTLVTVSSLTQPPSYESVSVSPGQTARITCSGDTLPKQYAYWYQQKPGQAPVLVIYKDSERPSGIPERFSGSSSGTTVTLTISGVQAEDEADYYCQSVDVSGTYVVFGGGTKLTVL
6.5

All values here come from patent US20160152728A1.
